- Assay system: AAV5 (adeno-associated virus serotype 5)
- Procedure details: SPR, AAV on CM5 chip
Mark each entry yes if its Kd sits below 0.8 nM, and no for all others.

Look over these answered cases.
{"Binder": "A4-C4 (bispecific antibody) VQLQESGGGLVQAGGSLRLSCAASGSRFSINTMGWYRQAPGKQREFVATVTRGGNTNYAESVKGRFTISRDNAKNTVYLQMNSLRPEDTAVYYCHVDEVRDSSWTTSNIWGQGTQVTVSSGGGGSGGGGSGGGGSVQLQESGGGLVQAGGSLRLSCAASGSRFSINTMGWYRQAPGKQREFVATVTRGGNTNYAESVKGRFTISRDNAKNTVYLQMNSLRPEDTAVYYCHVDEVRDSSWTTSNIWGQGTQVTVSSGGGGSGGGGSGGGGSVQLQESGGGLVQPGGSLRLSCAASGSNFRINTMGWYRQAPGKQRELVATVTRGGSTNYADSVKGRFTISRDNPKDTVYLQMNSLRPEDTAVYYCHVDEVRESSWTTSNLWGQGTQVTVSS", "Class label": "no"}
{"Binder": "A4-C7 (bispecific antibody) VQLQESGGGLVQPGGSLRLSCAASGSNFSINTMGWYRQAPGKQRELVATVTRGGDTNYADSVKGRFTISRDNAKNTVYLQMNSLRPEDTAVYYCHVDEIRESSWTTSNLWGQGTQVTVSSGGGGSGGGGSGGGGSVQLQESGGGLVQPGGSLRLSCAASGSNFRINTMGWYRQAPGKQRELVAPVTRGGSTNYADSVKGRFTISRDNAKNTVYLQMNSLRPEDTAVYYCHVDEVRESSWTTSNLWGQGTQVTVSSGGGGSGGGGSGGGGSVQLQESGGGLVQPGGSLRLSCAASGSSFTINTMGWYRQAPGKQRELVAAVTRGGSTNYAGSVKGRFTISRDNAKNTIYLQMNSLRPEDTAVYYCHVDEIRQSSWTTSNLWGQGTQVTVSS", "Class label": "yes"}
{"Binder": "A4-C8 (bispecific antibody) VQLQESGGGLVQPGGSLRLSCAASGSNFRINTMGWYRQAPGKQRELVAPVTRGGSTNYADSVKGRFTISRDNAKNTVYLQMNSLRPEDTAVYYCHVDEVRESSWTTSNLWGQGTQVTVSSGGGGSGGGGSGGGGSVQLQESGGGLVQPGGSLRLSCAASGSNFSINTMGWYRQAPGKQRELVATVTRGGDTNYADSVKGRFTISRDNAKNTVYLQMNSLRPEDTAVYYCHVDEIRESSWTTSNLWGQGTQVTVSSGGGGSGGGGSGGGGSVQLQESGGGLVQPGGSLRLSCAASGSNFSINTMGWYRQAPGKQRELVAALTRGGSTNYADSVKGRFTISRDNAKNTVYLQMNSLRPEDTAVYYCHVDEVRESSWTTSNLWGQGTQVTVSS", "Class label": "yes"}

Is 0.8 nM strictly greater than the binder's reported Kd? binder: A4-C2 (VHH) VQLQESGGGLVQPGGSLRLSCAASGSAFSINTMGWYRQAPGKQRELVASVTPGGSTNYADSVKGRFTISRDNAKNTIYLQMNSLRPEDTAVYYCHLDEVRESSWTTSNLWGQGTQVTVSSGGGGSGGGGSGGGGSVQLQESGGGLVQPGGSLRLSCAASGSAFSINTMGWYRQAPGKQRELVASVTPGGSTNYADSVKGRFTISRDNAKNTIYLQMNSLRPEDTAVYYCHLDEVRESSWTTSNLWGQGTQVTVSSGGGGSGGGGSGGGGSVQLQESGGGLVQPGGSLRLSCAASGSAFSINTMGWYRQAPGKQRELVASVTPGGSTNYADSVKGRFTISRDNAKNTIYLQMNSLRPEDTAVYYCHLDEVRESSWTTSNLWGQGTQVTVSS
yes

Same thing, different binder: A4-C5 (bispecific antibody) VQLQESGGGLVQPGGSLRLSCAASGSNFRINTMGWYRQAPGKQRELVATVTRGGSTNYADSVKGRFTISRDNPKNTVYLQMNSLRPEDTAVYYCHVDEVRESSWTTSNLWGQGTQVTVSSGGGGSGGGGSGGGGSVQLQESGGGLVQPGGSLRLSCAASGSNFSINTMGWYRQAPGKQRELVATVTRGGDTNYADSVKGRFTISRDNAKNTVYLQMNSLRPEDTAVYYCHVDEIRESSWTTSNLWGQGTQVTVSSGGGGSGGGGSGGGGSVQLQESGGGLVQPGGSLRLSCAASGSNFRINTMGWYRQAPGKQRELVATVTRGGSTNYADSVKGRFTISRDNPKNTVYLQMNSLRPEDTAVYYCHVDEVRESSWTTSNLWGQGTQVTVSS
no
